test summary: CHI Log D procedure
Type: physicochemical
test settings: pH 7.4, CHI Log D
chromatographic logD overview
Respond using a number only.

Example results:
CC(=O)N[C@@H](Cc1ccccc1)C(=O)N[C@@H](CC(=O)O)C(=O)N[C@@H](C)C(=O)N[C@]1(C)CCCCCCC=CCOC(=O)N2CC[C@@](C(=O)N[C@@H](CC(=O)O)C(=O)N[C@@H](Cc3c[nH]c4ccccc34)C(=O)N[C@@H](CCC(N)=O)C(N)=O)(C2)NC(=O)[C@H](C(C)C)NC(=O)[C@H](Cc2ccccc2)NC(=O)[C@H](C)NC(=O)[C@H](C)NC(=O)[C@H](CC(=O)O)NC(=O)[C@H](CC(=O)O)NC1=O (single isomer, unassigned) [I-122]: 0.84
CC(=O)N1CCC[C@]12CC=CCCCC1(CCCC=CCCCCCC[C@@](C)(C(=O)N[C@@H](Cc3ccc(Cl)cc3)C(=O)N[C@@H](Cc3c[nH]c4ccccc34)C(=O)N[C@@H](CCC(N)=O)C(N)=O)NC(=O)[C@H](C(C)C)NC(=O)[C@H](Cc3ccccc3)NC(=O)[C@H](C)NC(=O)[C@H](C)NC(=O)[C@H](CC(=O)O)NC(=O)[C@H](CC(=O)O)NC1=O)NC(=O)[C@H](C)NC(=O)[C@H](CC(=O)O)NC2=O (single isomer, unassigned) [I-312]: 2.13

Prompt: Requested field: chromatographic logD. Item: CC(=O)N1CCC[C@]12CC=CCCCC1(CCCC=CCCCCCC[C@@](C)(C(=O)N[C@@H](Cc3ccccc3)C(=O)N[C@@H](Cc3c[nH]c4ccc(F)cc34)C(=O)N[C@@H](CCC(N)=O)C(N)=O)NC(=O)[C@H](C(C)C)NC(=O)[C@H](Cc3ccccc3)NC(=O)[C@H](C)NC(=O)[C@H](C)NC(=O)[C@H](CCC(=O)O)NC(=O)[C@H](CC(=O)O)NC1=O)NC(=O)[C@H](C)NC(=O)[C@H](CC(=O)O)NC2=O (some centres unmarked) [I-146]
Completion: 2

Prompt: # get_value(readout='chromatographic logD', item= CC(=O)N1CCC[C@]12CC=CCCCC1(CCCC=CCCCCCC[C@@](C)(C(=O)N[C@@H](Cc3ccccc3)C(=O)N[C@@H](Cc3csc4ccccc34)C(=O)N[C@H](CO)C(N)=O)NC(=O)[C@H](CCC(N)=O)NC(=O)[C@H](Cc3ccccc3)NC(=O)[C@H](C)NC(=O)[C@H](C)NC(=O)[C@H](CCC(=O)O)NC(=O)[C@H](CC(=O)O)NC1=O)NC(=O)[C@H](C)NC(=O)[C@H](CC(=O)O)NC2=O (some centres unmarked) [I-493] )
Completion: 2.2

Prompt: If you can, please state the reported chromatographic logD value of CC(=O)N1CCC[C@]12CC=CCCCC1(CCCC=CCCCOC(=O)N3CC[C@@](C(=O)N[C@@H](Cc4ccsc4)C(=O)N[C@@H](Cc4csc5ccccc45)C(=O)N[C@@H](Cc4c[nH]cn4)C(N)=O)(C3)NC(=O)[C@H]([C@@H](C)O)NC(=O)[C@H](Cc3ccccc3)NC(=O)[C@H](C)NC(=O)[C@H](C)NC(=O)[C@H](CC(=O)O)NC(=O)[C@H](CC(=O)O)NC1=O)NC(=O)[C@H](CC(C)(C)C)NC(=O)[C@H](CC(=O)O)NC2=O (some centres unmarked) [I-810] .
Completion: 2.17
